Quick reference: IC50 of the listed items.
- Target or system: HLA DRB4*0101 (human)
- Method description: competition with 125I probe peptide, purified HLA
# number only, unit nM dropped from output

# example entries with known answers
Q: Which measured IC50 value corresponds to FHSIAGQYRGQCNTC (modifications not checked) [HPV45.E6.127 HTL epitope] ?
Result: 1300

Q: Which measured IC50 value corresponds to DWVMAIFGVNPTVAEGF (modifications not checked) [HPV45.E1.228 HTL epitope] ?
Result: 571

Q: Which measured IC50 value corresponds to TGRCIACWRRPRTET (modifications not checked) [HPV31.E6.132 HTL epitope] ?
Result: 225

Continuing:
Q: Which measured IC50 value corresponds to LDLQPETTDLYCYEQ (modifications not checked) [HPV16.E7.13 HTL epitope] ?
Result: 17
